- ASSAY NOTES: Compound 2 concentrations in plasma by LC-MS/MS
- Type: in vivo, SCID mice
- CONDITIONS: female, SCID, mouse, plasma, oral, 2 mg/kg, 2 mg/kg QD, 10 h after last dose; read-out: Plasma Concentration (μM) Mean ± SEM

ITEM SMILES | READING UNIT | concentration at 10 h
CCN1C(=O)CNc2ncc(-c3ccc(-c4nc[nH]n4)nc3C)nc21 | µM | 0.21

###

- Tested on: Akt(S473)
- ASSAY NOTES: Phospho-Akt(S473) in PC3 cell lysates, MSD
- Type: cell-based, human
- CONDITIONS: PC3, 1 hour exposure; read-out: p-Akt (S473) IC50
ASSAY ENDPOINT: IC50 (nM)

ITEM SMILES | MEASUREMENT TARGET | VALUE MEASURED
CO[C@H]1CC[C@H](N2C(=O)CNc3ncc(-c4ccc(C(C)(C)O)nc4)nc32)CC1 | Akt(S473) | 10

###

- ASSAY NOTES: Compound 2 concentrations in plasma by LC-MS/MS
- Assay type: in vivo, SCID mice
- CONDITIONS: female, SCID, mouse, plasma, oral, 10 mg/kg, Plasma Compound 2 Concentration (μM) Mean ± SEM, 10 mg/kg single oral dose, 10 h
ASSAY ENDPOINT: concentration at 10 h (µM)

ITEM SMILES | VALUE MEASURED
CCN1C(=O)CNc2ncc(-c3ccc(-c4nc[nH]n4)nc3C)nc21 | 1.18

###

- ASSAY NOTES: Compound 2 concentrations in plasma by LC-MS/MS
- Format: in vivo, SCID mice
- CONDITIONS: female, SCID, mouse, plasma, po, 0.5 mg/kg, 0.5 mg/kg BID, after last dose; read-out: total plasma AUC0-10 h
ASSAY ENDPOINT: AUC(0-t) (µM·h)

COMPOUND | ASSAY ENDPOINT | READING UNIT | VALUE MEASURED
CCN1C(=O)CNc2ncc(-c3ccc(-c4nc[nH]n4)nc3C)nc21 [Compound 2] | AUC(0-t) | µM·h | 1.42
